# RUN_DESCRIPTION: gradient 5% acetonitrile 3 min, to 50% in 2 min, to 85% in 15 min, held 3 min, 100 µL/min
# STUDY_CONDITIONS: column: Zorbax Extend-C18 2.1 x 50 mm; eluents: water / acetonitrile, 0.1% formic acid
READOUT_TYPE: RP-LC retention time

| COMPOUND | READOUT_TYPE | RESULT |
| --- | --- | --- |
| Cc1oc(-c2[nH]ncc2C(=O)N2CCCC2)cc1S(=O)(=O)Nc1ccc(C(C)C)cc1 | RP-LC retention time | 835 s |
| Cc1ccc(N(C)C(=O)C2CCCN2S(=O)(=O)c2cc3c(cc2C)NC(=O)C(C)O3)cc1 (stereo not given) | RP-LC retention time | 814 s |
| COCc1c(C(=O)O)nnn1-c1ccc2c(c1)CCC2 | RP-LC retention time | 777 s |
| COc1ccc(NC(=O)Cn2c(=O)c3cc(C4CC4)nn3c3ncccc32)cc1Cl | RP-LC retention time | 807 s |
| Cc1ccc(-c2nnc(-c3nn(C)c4c3CN(S(=O)(=O)c3ccc(C(C)(C)C)cc3)CC4)o2)cc1 | RP-LC retention time | 1210 s |
| CNC(=O)[C@@H]1CN(C(=O)c2ccsc2)C[C@H]1c1nc(C)no1 | RP-LC retention time | 615 s |
| COc1ccc2[nH]c3c(c2c1)CCN1C(=O)N(c2cccc(Cl)c2)C(=O)C31C (stereo not given) | RP-LC retention time | 1030 s |
| Cc1ccc(NC(=O)C2CCc3nc(N4CCOCC4)ncc3C2)c(F)c1 (stereo not given) | RP-LC retention time | 731 s |
| CCC(c1cccs1)N1C(=O)[C@H]2CN(S(=O)(=O)c3ccc(F)cc3)C[C@H]2C1=O (stereo not given in full) | RP-LC retention time | 979 s |
| C[C@H](CCC(=O)NCCS(=O)(=O)O)[C@H]1CC[C@H]2[C@@H]3CC[C@@H]4C[C@H](O)CC[C@]4(C)[C@H]3C[C@H](O)[C@]12C | RP-LC retention time | 724 s |
| CN(C)c1nc2ncn3c(=O)n(CC(=O)Nc4ccc(Cl)cc4F)nc3c2s1 | RP-LC retention time | 748 s |
| CCN1C(=O)c2ccccc2Sc2cc(-c3noc(CNC(=O)c4ccco4)n3)ccc21 | RP-LC retention time | 865 s |
| O=C1Nc2ccccc2/C1=C\c1cnc[nH]1 | RP-LC retention time | 617 s |
| O=C(Nc1ccc(N2CCN(c3ccccc3)C2=O)nc1)c1cccc(Cl)c1 | RP-LC retention time | 959 s |
| CCCn1cc(CCNC(=O)c2cc(F)cc(F)c2)c2cccnc21 | RP-LC retention time | 820 s |

###

Parameter: RP-LC retention time. Scope: all listed entries.
# RUN_DESCRIPTION: gradient 5% acetonitrile 3 min, to 50% in 2 min, to 85% in 15 min, held 3 min, 100 µL/min
# STUDY_CONDITIONS: column: Zorbax Extend-C18 2.1 x 50 mm; eluents: water / acetonitrile, 0.1% formic acid
READOUT_TYPE: RP-LC retention time (s)

| LINE_NOTATION | READOUT_TYPE | NUMERIC_RESULT |
| --- | --- | --- |
| Cc1ccc(-c2ccc(=O)n(Cc3noc(C(=O)NCCN4CCC(C)CC4)n3)n2)cc1 | RP-LC retention time | 677 |
| CCOC(=O)c1c(C)[nH]c(C(=O)N2CCC(CC(=O)N3CCOCC3)CC2)c1C | RP-LC retention time | 675 |
| O=C(c1ccccc1Br)N1CCN(c2cc(-c3ccc(F)cc3)[nH]n2)CC1 | RP-LC retention time | 824 |
